System: HSkMC
Test: cytotoxicity call (relative viability < 0.9)
Details: 10 µM
The whole screen tested about 39,000 compounds, of which about 1,500 (3.8%) were called active. This excerpt belongs to a sample that is enriched for actives.
Returns: one label drawn from T = active, F = inactive

Task: Could you check what this test reported for `COc1ccc(S(=O)(=O)Nc2ccc3c(c2)C(=O)N([C@@H](C)CO)C[C@@H](C)[C@@H](CN(C)Cc2ccc(-c4ccccc4)cc2)O3)cc1` ?
Result: T

Task: Thanks! And `COc1ccc(S(=O)(=O)Nc2ccc3c(c2)C(=O)N([C@@H](C)CO)C[C@H](C)[C@@H](CN(C)Cc2ccc(-c4ccccc4)cc2)O3)cc1` ?
Result: F

Task: Consider next the molecule `COc1ccc(S(=O)(=O)Nc2ccc3c(c2)C(=O)N([C@H](C)CO)C[C@@H](C)[C@H](CN(C)Cc2ccc(Oc4ccccc4)cc2)O3)cc1` in the same way.
Result: F

Task: Then `COc1ccc(-c2ccccn2)cc1` ?
Result: F

###

Tested on: HSkMC
Experiment: cytotoxicity call (relative viability < 0.9)
Details: 10 µM
In all, about 39,000 compounds went through this assay and about 1,500 (3.8%) were called active. For the sample, actives were picked, then their nearest neighbours and some compounds at random.
EXPERIMENTAL READOUT: cytotoxicity call

INPUT SMILES | cytotoxicity call
CCCCN(CCCC)CCCOC(=O)c1ccc(N)cc1.O=S(=O)(O)O | inactive
COc1ccc(CN(C)C[C@H]2Oc3c(NS(C)(=O)=O)cccc3C(=O)N([C@H](C)CO)C[C@H]2C)cc1 | inactive
C[C@@H]1CCCCO[C@H](CN(C)CC2CCCCC2)[C@@H](C)CN([C@@H](C)CO)C(=O)c2cc(NS(=O)(=O)c3cccs3)ccc2O1 | inactive
CCCCc1oc2ccc(NS(C)(=O)=O)cc2c1C(=O)c1ccc(OCCCN(CCCC)CCCC)cc1.Cl | active
C[C@@H]1CN([C@@H](C)CO)C(=O)c2cc(NS(=O)(=O)c3ccc(Cl)cc3)ccc2O[C@@H]1CN(C)Cc1ccc(-c2ccccc2)cc1 | active
CCCCc1oc2ccccc2c1C(=O)c1cc(I)c(OCCN(CC)CC)c(I)c1 | active
CCCCc1oc2ccccc2c1C(=O)c1cc(I)c(OCCN(CC)CC)c(I)c1.Cl | inactive

Now, please, on to the next molecule.
Task: Form field: reported cytotoxicity call of `CCc1oc2ccccc2c1C(=O)c1cc(Br)c(O)c(Br)c1`
Result: inactive

###

Test system: HSkMC
Test: cytotoxicity call (relative viability < 0.9)
Settings: 10 µM
The campaign covered roughly 39,000 compounds. About 1,500 (3.8%) were called active. The sample as a whole holds a higher share of actives than the screen did.
Valid outcomes are listed here; reply with one: 1.0 (active), 0.0 (inactive)

Task: Fill in: this test's call for `C[C@@H]1CN([C@H](C)CO)C(=O)c2cc(NS(=O)(=O)c3ccc(F)cc3)ccc2O[C@@H](C)CCCCO[C@H]1CN(C)Cc1ccc(Cl)c(Cl)c1` is ___
Result: 0.0

Task: Item: `C[C@@H]1CCCCO[C@@H](CN(C)Cc2ccc(Cl)c(Cl)c2)[C@@H](C)CN([C@H](C)CO)C(=O)c2cc(NS(=O)(=O)c3ccc(F)cc3)ccc2O1`
Result: 0.0

Task: Param item: `COc1ccccc1CNC(=O)C[C@H]1CC[C@@H]2[C@H](COC[C@H](O)CN2C(=O)Nc2ccc(F)cc2)O1`
Result: 0.0

Task: Field entry: `CCOC(=O)[C@H]1C/C=C/C[C@H](C(=O)OCC)C(=O)O[C@H]2[C@@H](OC)O[C@H](CO)[C@@H](OC(=O)c3c(OC)cccc3OC)[C@@H]2OC1=O`
Result: 0.0

Task: Param item: `CNC(=O)Nc1ccc(-c2nc(N3C[C@H]4CC[C@@H](C3)O4)c3cnn(C4CCC5(CC4)OCCO5)c3n2)cc1`
Result: 1.0

Task: Repeat for the following compound: `COc1ccc(NC(=O)N(C)C[C@@H]2Oc3c(NS(C)(=O)=O)cccc3C(=O)N([C@@H](C)CO)C[C@H]2C)cc1`
Result: 0.0

Task: What would you report for `COc1cccc(S(=O)(=O)N[C@@H]2C=C[C@@H](CC(=O)NC3CCC3)O[C@H]2CO)c1` ?
Result: 0.0

###

System: HSkMC
Assay: cytotoxicity call (relative viability < 0.9)
Settings: 10 µM
Among all 39,000 compounds or so, about 1,500 (3.8%) were called active. The entries come from a sample that favours actives as a whole.
One label from this list, please: active, inactive

Task: Dear all, I need the recorded test outcome for `COc1ccc(S(=O)(=O)Nc2ccc3c(c2)C(=O)N([C@@H](C)CO)C[C@H](C)[C@H](CN(C)C(=O)NC2CCCCC2)OCCCC[C@H](C)O3)cc1` , thank you.
Result: inactive

Task: Cool, now `CO[C@H]1C[C@H](O[C@@H]2/C(C)=C/C[C@@H]3C[C@@H](C[C@]4(CC[C@H](C)[C@@H](C5CCCCC5)O4)O3)OC(=O)[C@@H]3C=C(C)/C(=N/O)[C@H]4OC/C(=C\C=C\[C@@H]2C)[C@]43O)O[C@@H](C)[C@@H]1O`
Result: active

Task: What would you report for `COc1cccc(NC(=O)N(C)C[C@H]2OCc3ccccc3-c3c(n(C)c4ccccc34)C(=O)N([C@@H](C)CO)C[C@H]2C)c1` ?
Result: inactive

###

Tested on: HSkMC
Assay: cytotoxicity call (relative viability < 0.9)
Details: 10 µM
Screen size: about 39,000 compounds; about 1,500 (3.8%) were called active. The full list was thinned out, with actives kept by preference.
Answer with one of the outcomes 1 (active), 0 (inactive)

Task: What classification did `C[C@H](CO)N1C[C@H](C)[C@H](CN(C)S(=O)(=O)c2cccc(F)c2)Oc2ncc(C#CC3(O)CCCC3)cc2C1=O` end up with in this test?
Result: 0

Task: # iterate: `CC(=O)N[C@@H](Cc1ccccc1)C(=O)O`
Result: 0

Task: Subsequent entry: `COc1ccc(S(=O)(=O)N(C)C[C@@H]2Oc3ccc(NC(=O)Nc4c(C)noc4C)cc3CC(=O)N([C@@H](C)CO)C[C@H]2C)cc1`
Result: 0

Task: Now consider `C[C@@H]1CN([C@@H](C)CO)C(=O)c2cc(NS(=O)(=O)c3ccc(Cl)cc3)ccc2O[C@@H]1CN(C)Cc1ccc(C(F)(F)F)cc1` and answer again.
Result: 1

Task: `COC[C@H](NC(=O)c1cnc(C)s1)C(=O)N[C@@H](COC)C(=O)N[C@@H](Cc1ccccc1)C(=O)[C@@]1(C)CO1` , same question.
Result: 1

Task: Next entry: `CC(=O)N1[C@H](CNC(=O)CN2CCOCC2)[C@@H](c2ccccc2)[C@@H]1CO`
Result: 0

Task: Same thing, different compound: `CC(=O)N1[C@@H](CO)[C@H](c2ccccc2)[C@@H]1CNC(=O)CN1CCOCC1`
Result: 0

Task: Subsequent entry: `CC(C)NC(=O)N(C)C[C@@H]1Oc2ccc(NS(=O)(=O)c3ccc(Cl)cc3)cc2CC(=O)N([C@H](C)CO)C[C@@H]1C`
Result: 0

Task: Do the same for `C[C@@H](O)C#Cc1ccc2c(c1)O[C@H](CN(C)C(=O)C1CCCCC1)[C@@H](C)CN([C@@H](C)CO)S2(=O)=O` please
Result: 0

Task: Entry to check: `C[C@@H]1CN([C@@H](C)CO)C(=O)c2cc(NS(=O)(=O)c3ccc(Cl)cc3)ccc2O[C@H]1CN(C)Cc1ccc(C(F)(F)F)cc1`
Result: 0

Task: Param item: `Cc1ccc(S(=O)(=O)Nc2ccc3c(c2)C(=O)N([C@@H](C)CO)C[C@@H](C)[C@@H](CN(C)Cc2ccc(C(F)(F)F)cc2)O3)cc1`
Result: 0

Task: Do the same for `COc1ccc(C[C@H](NC(=O)[C@H](C)NC(=O)CN2CCOCC2)C(=O)N[C@@H](Cc2ccccc2)C(=O)[C@@]2(C)CO2)cc1` please
Result: 1

Task: Entry to check: `C[C@H]1CN([C@@H](C)CO)C(=O)c2cc(NS(=O)(=O)c3ccc(Cl)cc3)ccc2O[C@H]1CN(C)Cc1ccc(C(F)(F)F)cc1`
Result: 0

Task: Consider next the compound `C[C@H](CO)N1C[C@H](C)[C@H](CN(C)C(=O)Nc2ccccc2)OCc2ccccc2-c2c(n(C)c3ccccc23)C1=O` in the same way.
Result: 0

Task: `COc1ccc(NC(=O)Nc2cccc3c2O[C@@H](CN(C)CC2CCCCC2)[C@H](C)CN([C@@H](C)CO)C3=O)cc1` , same question.
Result: 0

###

Test system: HSkMC (human skeletal muscle cells)
Experiment: cytotoxicity call (relative viability < 0.9)
Details: 10 µM
The campaign covered roughly 39,000 compounds. About 1,500 (3.8%) were called active. Only a selection was taken, and actives are over-represented in it overall.
EXPERIMENTAL READOUT: cytotoxicity call

INPUT SMILES | RESULT VALUE
C[C@H]1CCCCO[C@@H](CN(C)C(=O)Nc2ccc3c(c2)OCO3)[C@@H](C)CN([C@@H](C)CO)C(=O)c2cc(NC(=O)Cc3ccccc3)ccc2O1 | inactive
CO[C@@H](C(=O)N(C)C[C@H]1OCc2ccccc2-c2c(n(C)c3ccccc23)C(=O)N([C@H](C)CO)C[C@@H]1C)c1ccccc1 | inactive
C[C@@H]1CCCCO[C@@H](CN(C)Cc2ccc(Cl)c(Cl)c2)[C@@H](C)CN([C@@H](C)CO)C(=O)c2cc(NS(=O)(=O)c3cn(C)cn3)ccc2O1 | inactive
